Each record here notes measured composite z-score.
- tested-target: Fibroblast growth factor 2 (Homo sapiens)
- experimental-protocol: basic fibroblast growth factor binding to printed compounds – biochemical, small-molecule microarray, 635/667 nm fluorescence, primary screen (AID 1133)
- applied-conditions: FGF2, fluorescence 635/667, higher = more signal
Enter a number only.

Below, each entry is followed by its recorded composite z-score result.
molecule: C[C@@H]1NC(=O)C([C@@H](C)OCc2ccccc2)NC(=O)[C@@]23C(=O)N[C@@H](Cc4ccccc4)C2[C@H](C)[C@@]2(C)O[C@H]2C3/C=C/C/C=C\CNC1=O (some centres undefined)
composite z-score: 0.0742

molecule: COc1ccc(C(O)C2C=CC3C(=O)N(c4ccccc4)C(=O)C3N2Nc2ccc(C#N)cc2)cc1OCc1ccccc1 (centres undefined)
composite z-score: -0.529

molecule: COc1ccc([Si](C)(C)[C@H]2[C@H](CC(=O)N3Cc4ccccc4C[C@H]3CO)O[C@@]3(C(=O)N(C)c4ccccc43)[C@@H]2C)cc1
composite z-score: 1.24

molecule: COC(=O)[C@@]1(Cc2ccccc2)[C@H]2c3cc(C(=O)N(C)C)n(CCO)c3C[C@H]2CN1C(=O)c1ccccc1
composite z-score: -0.541

molecule: COc1ccc(C(=O)Nc2ccc3c(c2)[C@@]2(O[C@H](CCO)[C@@H]([Si](C)(C)c4ccc(OC)cc4)[C@@H]2C)C(=O)N3Cc2ccccc2)cc1
composite z-score: 1.45

Alright, here's another molecule for you.
Prompt: Need composite z-score of [N-]=[N+]=Nc1ccccc1[C@H]1OC(c2ccc(OCCCO)cc2)=N[C@@]1(Cc1ccccc1)C(=O)NCC(O)CO (some centres undefined) , thanks.
Response: -0.551
